target: Cdc7 (BEV coexpressed huCDC7/DBF4) (Homo sapiens); assay: Cdc7 enzyme inhibition assay ([33P]-ATP, biotinylated peptide substrate, FlashPlate); details: Ki generated from IC50 assuming ATP-competitive inhibition, apparent ATP Km 0.7 μM; 1 μM ATP, 1 hr
Sequence (O00311 whole entry): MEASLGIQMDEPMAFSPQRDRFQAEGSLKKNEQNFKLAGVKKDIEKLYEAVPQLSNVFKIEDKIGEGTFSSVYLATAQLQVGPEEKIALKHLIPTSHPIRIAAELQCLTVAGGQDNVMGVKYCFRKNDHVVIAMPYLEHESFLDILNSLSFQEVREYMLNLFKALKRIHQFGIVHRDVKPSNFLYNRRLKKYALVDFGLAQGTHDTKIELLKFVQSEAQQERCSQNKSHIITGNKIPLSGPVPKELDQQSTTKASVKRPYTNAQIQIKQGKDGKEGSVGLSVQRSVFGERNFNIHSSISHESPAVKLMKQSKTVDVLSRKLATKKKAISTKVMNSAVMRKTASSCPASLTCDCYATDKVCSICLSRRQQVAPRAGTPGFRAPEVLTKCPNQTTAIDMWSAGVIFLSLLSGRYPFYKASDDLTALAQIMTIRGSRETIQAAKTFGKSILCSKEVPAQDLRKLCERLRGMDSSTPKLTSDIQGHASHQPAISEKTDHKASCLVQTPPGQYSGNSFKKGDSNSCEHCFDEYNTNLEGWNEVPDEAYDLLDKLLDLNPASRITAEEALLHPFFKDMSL
Sequence (Q9UBU7 whole entry partner): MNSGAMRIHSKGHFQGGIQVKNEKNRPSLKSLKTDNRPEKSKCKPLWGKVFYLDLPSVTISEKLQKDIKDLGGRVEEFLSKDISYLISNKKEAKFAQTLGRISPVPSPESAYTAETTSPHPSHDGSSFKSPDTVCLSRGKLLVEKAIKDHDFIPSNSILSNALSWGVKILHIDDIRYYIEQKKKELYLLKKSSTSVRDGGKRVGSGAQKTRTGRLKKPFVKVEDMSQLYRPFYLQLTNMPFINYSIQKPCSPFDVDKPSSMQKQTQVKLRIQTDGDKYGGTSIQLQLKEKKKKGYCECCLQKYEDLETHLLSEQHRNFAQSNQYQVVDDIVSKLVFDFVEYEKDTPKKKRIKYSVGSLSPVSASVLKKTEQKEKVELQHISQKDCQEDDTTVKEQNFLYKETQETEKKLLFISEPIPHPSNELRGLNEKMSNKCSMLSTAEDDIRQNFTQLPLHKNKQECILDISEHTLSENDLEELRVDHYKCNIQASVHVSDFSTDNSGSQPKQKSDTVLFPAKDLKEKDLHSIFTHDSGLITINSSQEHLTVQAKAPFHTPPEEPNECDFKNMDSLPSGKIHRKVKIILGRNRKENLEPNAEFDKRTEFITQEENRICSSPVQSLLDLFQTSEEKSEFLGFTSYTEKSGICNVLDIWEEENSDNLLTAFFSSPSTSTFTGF
Assay metric: Ki

- CC(=O)Nc1ccc(Cc2n[nH]c(=O)c3ccc(-c4c[nH]c5ncccc45)cc23)cc1 [Example 12]: < 10 nM
- O=c1[nH]nc(Cc2ccccc2)c2cc(-c3ccncc3)ccc12 [Example 2]: > 100 nM
- O=c1[nH]nc(Cc2cccnc2)c2cc(-c3c[nH]c4ncccc34)ccc12 [Example 8]: < 10 nM
- O=c1[nH]nc(Cc2ccccc2)c2cc(-c3cccnc3)ccc12 [Example 4]: > 100 nM

Recorded result, O=c1[nH]nc(CC2CCCNC2)c2cc(-c3c[nH]c4ncccc34)ccc12 (stereo not drawn) [Example 7] , Ki: > 100 nM

Recorded result, O=c1[nH]nc(Cc2ccccc2)c2cc(-c3c[nH]c4ncccc34)ccc12 [Example 1] , Ki: < 10 nM

Recorded result, O=c1[nH]nc(Cc2ccncc2)c2cc(-c3c[nH]c4ncccc34)ccc12 [Example 5] , Ki: < 10 nM

Recorded result, CN(C)c1ccc(Cc2n[nH]c(=O)c3ccc(-c4c[nH]c5ncccc45)cc23)cc1 [Example 11] , Ki: 10 to 100 nM

Recorded result, O=c1[nH]nc(Cc2ccccc2)c2cc(-c3cn[nH]c3)ccc12 [Example 3] , Ki: 10 to 100 nM
